// reported MIC for each item listed
Test system: Streptococcus pyogenes
testProtocol: Antibacterial activity against erythromycin-resistant Streptococcus pyogenes 2 assessed as bacterial growth inhibition incubated for 24 hrs by CLSI protocol based broth microdilution method
Format: functional
Lab note: write values as number then unit, every time.

Some compounds with known MIC results, for comparison:
Input line: # MIC lookup, item CCCCc1ccc(/C=C/c2c3ccccc3[n+](C)c3ccccc23)cc1.[I-]
Output line: 0.5 µg/mL

Input line: Item under review: C[n+]1c2ccccc2c(-c2cccc([N+](=O)[O-])c2)c2ccccc21.[I-] . Reported MIC?
Output line: 64 µg/mL

Pending compound:
Input line: Quick one: MIC for CCCCCCCCNc1c2ccccc2[n+](C)c2ccccc12.[Cl-] ?
Output line: 16 µg/mL
